Test system: T-47D spheroids with HUVEC/MSC, viability
Test: Anticancer human tumor T-47D cell line growth inhibition [PI3K];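 note: spheroids exposed to agents for seven days before reading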
Settings: curve of first compound; second compound 0.1 µM
Listed compounds paired with reported IC50

Check out these entries, answers already filled in.
{"compound": "CC(Cn1ccc(-c2ccc(C#N)c(Cl)c2)n1)NC(=O)c1cc(C(C)O)[nH]n1 (stereo unspecified) + CC(Nc1ccc2c(c1)OCCn1cc(N3C(=O)OCC3C(F)F)nc1-2)C(N)=O", "measurement": "> 10 µM"}
{"compound": "CC1(C)CCC(Nc2ncc(C(F)(F)F)c(-c3c[nH]c4c(P(C)(C)=O)c(C#N)ccc34)n2)CN1 (stereo unspecified) + CC(Nc1ccc2c(c1)OCCn1cc(N3C(=O)OCC3C(F)F)nc1-2)C(N)=O", "measurement": "4.42 µM"}
{"compound": "CNC(=O)c1ccc(N2C(=S)N(c3ccc(C#N)c(C(F)(F)F)c3)C(=O)C2(C)C)cc1F + Cc1nc(NC(=O)N2CCCC2C(N)=O)sc1-c1ccnc(C(C)(C)C(F)(F)F)c1", "measurement": "> 10 µM"}

Any idea what its IC50 is? The compound is CC(C)n1nc(-c2ccc3oc(N)nc3c2)c2c(N)ncnc21 + CC(Nc1ccc2c(c1)OCCn1cc(N3C(=O)OCC3C(F)F)nc1-2)C(N)=O
0.0284 µM

Any idea what its IC50 is? The compound is CCN1CCN(Cc2ccc(Nc3ncc(F)c(-c4cc(F)c5nc(C)n(C(C)C)c5c4)n3)nc2)CC1 + CC(Nc1ncnc2nc[nH]c12)c1cc2cccc(Cl)c2c(=O)n1-c1ccccc1
> 1 µM

Any idea what its IC50 is? The compound is CC1(C)CCC(CN2CCN(c3ccc(C(=O)NS(=O)(=O)c4ccc(NCC5CCOCC5)c([N+](=O)[O-])c4)c(Oc4cnc5[nH]ccc5c4)c3)CC2)=C(c2ccc(Cl)cc2)C1 + Cc1nc(NC(=O)N2CCCC2C(N)=O)sc1-c1ccnc(C(C)(C)C(F)(F)F)c1
> 10 µM

Any idea what its IC50 is? The compound is CC1(C)CCC(CN2CCN(c3ccc(C(=O)NS(=O)(=O)c4ccc(NCC5CCOCC5)c([N+](=O)[O-])c4)c(Oc4cnc5[nH]ccc5c4)c3)CC2)=C(c2ccc(Cl)cc2)C1 + CC(Nc1ncnc2nc[nH]c12)c1cc2cccc(Cl)c2c(=O)n1-c1ccccc1
> 10 µM

Any idea what its IC50 is? The compound is CCN1CCN(Cc2ccc(Nc3ncc(F)c(-c4cc(F)c5nc(C)n(C(C)C)c5c4)n3)nc2)CC1 + CC(Nc1ccc2c(c1)OCCn1cc(N3C(=O)OCC3C(F)F)nc1-2)C(N)=O
> 1 µM

Any idea what its IC50 is? The compound is CCCS(=O)(=O)Nc1ccc(F)c(C(=O)c2c[nH]c3ncc(-c4ccc(Cl)cc4)cc23)c1F + COc1c(OCCCN2CCOCC2)ccc2c3n(c(=NC(=O)c4cnc(N)nc4)nc12)CCN3
< 0.0316 µM

Any idea what its IC50 is? The compound is Cn1ncc(Cl)c1-c1cc(C(=O)NC(CN)Cc2cccc(F)c2)sc1Cl (stereo unspecified) + COc1c(OCCCN2CCOCC2)ccc2c3n(c(=NC(=O)c4cnc(N)nc4)nc12)CCN3
< 0.0316 µM

Any idea what its IC50 is? The compound is CC(Cn1ccc(-c2ccc(C#N)c(Cl)c2)n1)NC(=O)c1cc(C(C)O)[nH]n1 (stereo unspecified) + CC(Nc1ncnc2nc[nH]c12)c1cc2cccc(Cl)c2c(=O)n1-c1ccccc1
> 10 µM
